Target: T1, CRBN, Q96SW2;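 further: pooled lentiviral library of zinc finger degron-EGFP fusions in mCherry-positive Jurkat cells, FACS-sorted after compound exposure, with degron abundance counted by next-generation sequencing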
T1 chain: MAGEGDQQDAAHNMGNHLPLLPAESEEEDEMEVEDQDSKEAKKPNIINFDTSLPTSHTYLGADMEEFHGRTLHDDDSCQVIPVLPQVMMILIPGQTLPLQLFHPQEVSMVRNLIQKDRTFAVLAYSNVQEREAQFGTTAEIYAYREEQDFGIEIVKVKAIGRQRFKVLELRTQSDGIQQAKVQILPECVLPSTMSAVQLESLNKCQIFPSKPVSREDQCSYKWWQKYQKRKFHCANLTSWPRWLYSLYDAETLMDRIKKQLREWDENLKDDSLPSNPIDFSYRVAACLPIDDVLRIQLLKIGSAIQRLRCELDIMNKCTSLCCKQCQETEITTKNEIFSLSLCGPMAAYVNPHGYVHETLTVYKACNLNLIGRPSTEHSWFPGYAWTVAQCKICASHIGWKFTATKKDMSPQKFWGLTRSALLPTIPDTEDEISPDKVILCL
Experiment: log2 fold change of degron read counts, EGFP-low vs EGFP+ sorted cells (limma voom), compound-induced degradation; higher = more compound-induced degradation of the degron-EGFP fusion; degrons are variants of IKZF1/3 zinc finger 2; compound dose not given here
Conditions: Jurkat; 18 h; compound: compound 19 (5-tert-butyl-thalidomide)
The full ranking holds about 8,300 sequences; the median of “log2 fold change of degron read counts, EGFP-low vs EGFP+ sorted cells (limma voom), compound-induced degradation” is about -1.1, and the highest 2% start at about 3.2. This excerpt belongs to a sample that is enriched for the highest values.
Please note: 1.0 applies when log2 fold change of degron read counts is 0.08 or greater, and 0.0 applies otherwise.

residue string	class assignment
FWCPICGATFTQKGNLLRHIKL [46F_47W_49P_50I_52G_53A_54T_55F_67L_, Q9UKT9]	1.0
FLCEICGRNFTQKGNLLRHIKL [46F_47L_49E_50I_52G_53R_54N_55F_67L_, Q9UKT9]	0.0
LNCPICGFLCTQKGNLLRHIKL [46L_47N_49P_50I_52G_53F_54L_55C_67L_, Q9UKT9]	0.0
FVCEVCGAVFTQKGNLLRHIKL [46F_47V_49E_50V_52G_53A_54V_55F_67L_, Q9UKT9]	0.0
FECDICGAPFTQKGNLLRHIKL [46F_47E_49D_50I_52G_53A_54P_55F_67L_, Q9UKT9]	1.0
FDCDICGAPFTQKGNLLRHIKL [46F_47D_49D_50I_52G_53A_54P_55F_67L_, Q9UKT9]	1.0
FQCNICGATFTQKGNLLRHIKL [46F_47Q_49N_50I_52G_53A_54T_55F_67L_, Q9UKT9]	0.0
FWCDVCGAFFTQKGNLLRHIKL [46F_47W_49D_50V_52G_53A_54F_55F_67L_, Q9UKT9]	1.0
FYCDQCGAIFTQKGNLLRHIKL [46F_47Y_49D_50Q_52G_53A_54I_55F_67L_, Q9UKT9]	0.0
FMCDICGAPFTQKGNLLRHIKL [46F_47M_49D_50I_52G_53A_54P_55F_67L_, Q9UKT9]	1.0
FTCDVCGARFTQKGNLLRHIKL [46F_47T_49D_50V_52G_53A_54R_55F_67L_, Q9UKT9]	1.0
FSCEVCGAVFTQKGNLLRHIKL [46F_47S_49E_50V_52G_53A_54V_55F_67L_, Q9UKT9]	1.0
FRCDICGAPFTQKGNLLRHIKL [46F_47R_49D_50I_52G_53A_54P_55F_67L_, Q9UKT9]	1.0
FCCDICGATFTQKGNLLRHIKL [46F_47C_49D_50I_52G_53A_54T_55F_67L_, Q9UKT9]	1.0
